biological target: Concanavalin-A (Canavalia ensiformis); assay: compounds binding concanavalin A lectin – biochemical, small-molecule microarray, Alexa647 label, 635 nm, artefact control for SMM control protein annotation, primary screen (AID 1127); conditions: ConA-A647 binding fluorescence, higher = more signal;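 note: z combines 667 nm emission intensity with signal-to-noise across three replicate slides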
Overview of reported composite z-score across a group of compounds:

>  <Compound>
COc1ccc([Si](C)(C)[C@H]2[C@H](CC(=O)N3Cc4ccccc4C[C@H]3CO)O[C@@]3(C(=O)N(c4ccccc4)c4ccccc43)[C@@H]2C)cc1

>  <composite z-score>
1.09

$$$$
>  <Compound>
COc1ccc([Si](C)(C)[C@@H]2[C@@H](CC(=O)N(CCO)Cc3ccccc3)O[C@]3(C(=O)N(Cc4ccc(I)cc4)c4ccccc43)[C@H]2C)cc1

>  <composite z-score>
0.817

$$$$
>  <Compound>
C=CCC(OC(C)=O)[C@@H]1[C@@H](N(Cc2cccc3ccccc23)C(=O)Cc2ccc(OC)cc2)c2cc(OCCCO)ccc2N1C(=O)Cc1ccc2ccccc2c1 (stereo partly specified)

>  <composite z-score>
-0.154

$$$$
>  <Compound>
COc1ccc([Si](C)(C)[C@@H]2[C@@H](CC(=O)N(CCO)Cc3ccccc3)O[C@]3(C(=O)N(Cc4ccc(N5C(=O)c6cccc7cccc5c67)cc4)c4ccccc43)[C@H]2C)cc1

>  <composite z-score>
1.12

$$$$
>  <Compound>
CCCCC(O)C1C=CC2C(=O)N(c3ccccc3)C(=O)C2N1Nc1ccc(C#N)cc1 (stereo unspecified)

>  <composite z-score>
0.778

$$$$
>  <Compound>
Cc1ccc(S[C@]2(C(=O)NC(C)C)CC(=O)N(C3CCCCC3)[C@@H]2c2ccc(CO)cc2I)cc1

>  <composite z-score>
1.11

$$$$
